tested on: EKVX; assay: NCI tumour cell line growth inhibition, 48 h
Activity calls are given as the source filed them. Cut-off read from the data, not from the text of the source: active = GI50 up to about 1.1 µM and inactive = higher.
assayReadout: GI50

COc1ccc(S(=O)(=O)NC(C)C(=O)O)cc1 (stereo not given)    > 100 µM (inactive)
CC(CC=O)Nc1nn2c(=O)c3ccccc3nc2s1 (stereo not given)    > 100 µM (inactive)
Cc1[nH]nc(C(=O)N/N=C/c2ccccc2Cl)c1/N=N\N(C)C    12.4 µM (inactive)
O=C(CNc1ccccc1[N+](=O)[O-])Nn1cnc2ccc(S(=O)(=O)Nc3ccccc3[N+](=O)[O-])cc2c1=O    > 100 µM (inactive)
Cc1ccc(S(=O)(=O)N/N=C2\C=CC3(CC2)C(=O)N(I)c2ccccc23)cc1 (stereo not given)    > 100 µM (inactive)
O=C(NNC(=O)c1csc(NC(=S)NC2CCCCC2)n1)c1ccccc1    1.84 µM (inactive)
CCOC(=O)C1C(c2ccc(OC)cc2)c2c(nn(-c3ccccc3)c2O)CC1(O)OCC (stereo not given)    98.9 µM (inactive)
CC(C)c1cc2c(cc1S(=O)(=O)O)[C@@]1(C)CCC[C@@](C)(C(=O)O)C1CC2 (stereo not given in full)    > 100 µM (inactive)
CC(NC(=O)c1ccc(OP(=O)(OCc2ccc([N+](=O)[O-])o2)N(C)CCCCCl)cc1)c1ccc(OCC2CCCCC2)c(C(N)=O)c1 (stereo not given)    14.3 µM (inactive)
COc1ccccc1/N=C(\N)N/N=C/c1c[nH]c2ccccc12    11 µM (inactive)
